Recorded fraction unbound values for a group of molecules are listed next.
biological target: bovine serum albumin (BSA) (Bos taurus, UniProt P02769); construct: gene ALB; assay: equilibrium dialysis with […]-ligand; assay type: binding; conditions: read-out: % released into dialysate
Sequence (P02769 25-607): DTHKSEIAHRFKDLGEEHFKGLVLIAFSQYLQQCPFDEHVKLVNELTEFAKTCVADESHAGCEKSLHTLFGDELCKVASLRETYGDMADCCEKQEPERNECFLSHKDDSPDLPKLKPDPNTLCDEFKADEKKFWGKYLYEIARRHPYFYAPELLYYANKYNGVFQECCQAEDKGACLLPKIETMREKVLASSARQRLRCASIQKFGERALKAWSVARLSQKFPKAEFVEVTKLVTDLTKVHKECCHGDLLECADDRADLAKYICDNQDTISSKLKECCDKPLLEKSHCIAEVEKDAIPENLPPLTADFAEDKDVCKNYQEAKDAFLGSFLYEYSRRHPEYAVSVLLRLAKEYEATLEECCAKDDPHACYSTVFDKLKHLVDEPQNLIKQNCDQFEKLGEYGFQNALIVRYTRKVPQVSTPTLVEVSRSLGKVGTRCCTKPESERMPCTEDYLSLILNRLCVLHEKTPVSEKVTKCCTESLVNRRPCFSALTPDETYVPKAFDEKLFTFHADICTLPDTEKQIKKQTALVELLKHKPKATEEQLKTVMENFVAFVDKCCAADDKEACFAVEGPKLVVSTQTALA
Enter the number alone.

# MOLECULE, fraction unbound
measured = [
    ("CCNC(=S)N/N=C(\\c1ccccc1)c1ccccn1 [Bp4eT]", 0.09),
]

# next molecule below
Request the reported fraction unbound associated with CN(C)C(=S)NN=C(c1ccccn1)c1ccccn1 [Dp44mT] 0.21

====

molecular target: human serum albumin (HSA) (Homo sapiens); construct: gene ALB; test: equilibrium dialysis with […]-ligand; Trp-214 fluorescence quenching; format: binding; conditions: read-out: % released into dialysate
Sequence (P02768 25-609): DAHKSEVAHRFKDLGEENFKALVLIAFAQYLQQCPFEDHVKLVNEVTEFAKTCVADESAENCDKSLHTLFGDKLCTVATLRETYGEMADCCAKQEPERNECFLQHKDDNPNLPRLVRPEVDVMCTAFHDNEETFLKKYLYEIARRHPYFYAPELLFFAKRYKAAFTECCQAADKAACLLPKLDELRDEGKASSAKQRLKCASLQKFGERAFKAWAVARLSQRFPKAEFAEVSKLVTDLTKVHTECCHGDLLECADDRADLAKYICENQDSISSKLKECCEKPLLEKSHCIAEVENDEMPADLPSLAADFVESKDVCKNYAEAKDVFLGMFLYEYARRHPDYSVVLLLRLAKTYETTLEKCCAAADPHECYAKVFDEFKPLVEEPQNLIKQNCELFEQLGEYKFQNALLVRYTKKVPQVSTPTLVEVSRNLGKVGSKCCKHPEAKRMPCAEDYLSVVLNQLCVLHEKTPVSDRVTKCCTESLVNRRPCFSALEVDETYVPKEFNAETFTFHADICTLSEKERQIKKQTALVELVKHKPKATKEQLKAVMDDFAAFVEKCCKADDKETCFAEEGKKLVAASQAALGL
MEASUREMENT_TYPE: fraction unbound
Enter the number alone.

Solved entries:
# MOLECULE, MEASURED_ON, fraction unbound
records = [
    ("CCNC(=S)N/N=C(\\c1ccccc1)c1ccccn1", "human serum albumin (HSA) (Homo sapiens)", 0.04),
    ("Cc1ncc(CO)c(C=NNC(=O)c2ccncc2)c1O [PIH, pyridoxal isonicotinoyl hydrazone]", "human serum albumin (HSA) (Homo sapiens)", 0.06),
]

# next molecule below
Request the reported fraction unbound associated with CN(C)C(=S)NN=C(c1ccccn1)c1ccccn1 [Dp44mT] 0.22
